- Study system: human dopamine D3 receptors (Homo sapiens)
- Sequence (P35462 whole entry): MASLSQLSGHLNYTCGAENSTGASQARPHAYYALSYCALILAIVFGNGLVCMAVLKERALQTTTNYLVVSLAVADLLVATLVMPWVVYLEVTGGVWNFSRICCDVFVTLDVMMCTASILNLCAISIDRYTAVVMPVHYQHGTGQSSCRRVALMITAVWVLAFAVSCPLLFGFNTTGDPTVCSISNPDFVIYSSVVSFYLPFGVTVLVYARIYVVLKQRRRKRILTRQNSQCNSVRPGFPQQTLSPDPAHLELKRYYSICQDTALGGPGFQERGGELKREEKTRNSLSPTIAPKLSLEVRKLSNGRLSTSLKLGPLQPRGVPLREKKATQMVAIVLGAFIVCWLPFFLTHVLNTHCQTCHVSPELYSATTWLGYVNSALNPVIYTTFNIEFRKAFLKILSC
Where a name gives a salt, the structure may show the parent alone.
Assay endpoint: Ki (nM)

Consider the worked cases shown below.
> print(dat)
                                   molecule  assay.endpoint  unit.annotation  recorded.value
1  Cn1c(SCCCN2CCN(c3cc(C4CCC4)nc(C(C)(C)C)n3)CC2)nnc1C1CC1.O=C(O)/C=C/C(=O)O [Example 44, fumarate]              Ki               nM             0.6
2  CC(C)(C)c1nc(C2CCC2)cc(N2CCN(CCCCNC(=O)c3ccc(F)cc3)CC2)n1.Cl [Example 10, hydrochloride]              Ki               nM             0.5

(a) Cn1c(SCCCN2CCN(c3cc(C4CC4)nc(C(C)(C)C)n3)CC2)nnc1-c1cnccn1 [Example 56, hydrochloride]
(b) Cc1nnc(SCCCN2CCN(c3cc(C4CCC4)nc(C(C)(C)C)n3)CC2)s1.Cl [Example 2, hydrochloride]
// compare measured Ki, left a , right b , return larger Respond with the label that goes with your answer. b
(b: 1.4 nM, a: 0.47 nM)

---

- Study system: human dopamine D3 receptors (Homo sapiens)
- Construct: expressed in transfected cells; host or cells: HEK-293
- Protocol text: Dopamine D3 receptor binding, [125I]-iodosulpride displacement
- Condition notes: selectivity ratio of receptor binding constants
Where a name gives a salt, the structure may show the parent alone.
Assay endpoint: Ki(D2)/Ki(D3)

Consider the worked cases shown below.
> print(dat)
                                   molecule  assay.endpoint  recorded.value
1  CC(C)(C)c1nc(C2CC2)cc(N2CCN(CCCOc3nccc(O)n3)CC2)n1   Ki(D2)/Ki(D3)              51
2  CC(C)(C)c1nc(C2CCC2)cc(N2CCN(CCCOc3nccc(O)n3)CC2)n1   Ki(D2)/Ki(D3)              70
3  Cc1nnc(SCCCN2CCN(c3cc(C4CCC4)nc(C(C)(C)C)n3)CC2)s1.Cl   Ki(D2)/Ki(D3)              96
4  Cl.Cn1cccc1-c1nnc(SCCCN2CCN(c3cc(C4CCC4)nc(C(C)(C)C)n3)CC2)n1C   Ki(D2)/Ki(D3)             106
5  CC(C)(C)c1nc(C2CCC2)cc(N2CCN(CCCSc3ncccn3)CC2)n1.Cl   Ki(D2)/Ki(D3)             127

(P) Cc1nnc(SCCCN2CCN(c3cc(C4CC4)nc(C(C)(C)C)n3)CC2)n1C.Cl
(Q) CC(C)(C)c1nc(C2CCC2)cc(N2CCN(CCCCNC(=O)c3cccnc3)CC2)n1
(R) C[C@@H](COc1nccc(O)n1)CN1CCN(c2cc(C3CCC3)nc(C(C)(C)C)n2)CC1
(S) Cn1cnnc1SCCCN1CCN(c2cc(C3(C)CC3)nc(C(C)(C)C)n2)CC1
Falling order of Ki(D2)/Ki(D3), please. Could you list the labels in the order requested? P, Q, R, S
(P: 234, Q: 121, R: 82, S: 50)

(I) Cn1cnnc1SCCCN1CCN(c2cc(C3CCC3)nc(C(C)(C)C)n2)CC1
(II) Cn1c(SCCCN2CCN(c3cc(C4CCC4)nc(C(C)(C)C)n3)CC2)nnc1C(F)(F)F
Please choose the item with the lower Ki(D2)/Ki(D3) value from this pair: I and II Respond with the label that goes with your answer. II
(II: 203, I: 314)

(A) Cn1c(SCCCN2CCN(c3cc(C(C)(C)C)nc(C4CC4)n3)CC2)nnc1-c1cnccn1 [Example 57, hydrochloride]
(B) Cn1c(OCCCN2CCN(c3cc(C4(C)CC4)nc(C(C)(C)C)n3)CC2)nnc1-c1ccccc1
Please choose the item with the lower Ki(D2)/Ki(D3) value from this pair: A and B Respond with the label that goes with your answer. B
